Assign IC50 to each entry below.
- measured.target: NPM-ALK-BaF3 (Homo sapiens)
- Construct: expressed in transfected cells; host or cells: Ba/F3 cells; the other entry of the earlier key: NPM1 (P06748, Nucleophosmin)
- Sequence (Q9UM73 with tags, fused parts or gaps): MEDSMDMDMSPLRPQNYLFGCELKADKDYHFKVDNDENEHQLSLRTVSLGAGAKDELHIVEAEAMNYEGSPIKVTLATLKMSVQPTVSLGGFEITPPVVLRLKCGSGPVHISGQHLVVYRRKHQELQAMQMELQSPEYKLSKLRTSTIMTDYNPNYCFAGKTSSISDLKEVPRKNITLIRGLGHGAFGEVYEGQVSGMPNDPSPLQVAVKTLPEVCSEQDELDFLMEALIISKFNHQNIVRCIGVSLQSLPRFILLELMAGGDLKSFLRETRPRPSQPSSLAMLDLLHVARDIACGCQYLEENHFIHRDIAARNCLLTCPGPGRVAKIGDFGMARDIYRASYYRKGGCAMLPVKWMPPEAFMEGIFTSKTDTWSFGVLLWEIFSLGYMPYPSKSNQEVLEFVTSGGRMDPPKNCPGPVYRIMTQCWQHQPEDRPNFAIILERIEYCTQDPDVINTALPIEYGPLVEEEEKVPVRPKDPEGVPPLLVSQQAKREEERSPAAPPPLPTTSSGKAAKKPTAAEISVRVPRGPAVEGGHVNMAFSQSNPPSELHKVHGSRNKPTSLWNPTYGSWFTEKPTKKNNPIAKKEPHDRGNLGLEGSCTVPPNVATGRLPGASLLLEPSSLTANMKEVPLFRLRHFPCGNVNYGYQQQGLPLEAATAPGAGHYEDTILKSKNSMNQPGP
- test.details: Growth inhibition of NPM-ALK transformed BaF3 cells (MTS)
- Format: cell-based
- cond: 48 hours, Table 11

Field: example entries. Status: answers known.
- COC(=O)c1sccc1Nc1nc(Nc2ccc(N3CCC(N4CCN(C)CC4)CC3)cc2OC)nc2cc[nH]c12 [IK-2]: ~823 nM
- COc1cc(N2CCC(N3CCN(C)CC3)CC2)ccc1Nc1nc(NCc2ccccc2SC)c2[nH]ccc2n1 [IL-2]: ~7720 nM
- CNC(=O)c1ccccc1Nc1nc(Nc2ccc(N3CCC(N4CCCC4)CC3)cc2OC)nc2cc[nH]c12 [IJ-2]: ~8360 nM
- COc1cc(N2CCC(N3CCN(C)CC3)CC2)ccc1Nc1nc(NC2CC2)c2[nH]ccc2n1 [IS-2]: > 10000 nM
- NS(=O)(=O)c1ccc(Nc2nc(NC3CC3)c3[nH]ccc3n2)cc1 [IS-4]: > 10000 nM
- CC(C)Sc1ccccc1Nc1nc(Nc2ccc(S(N)(=O)=O)cc2)nc2cc[nH]c12 [IB-3]: 8830 nM
- CS(=O)(=O)c1ccccc1Nc1nc(Nc2ccc(N3CCC(O)CC3)cc2)nc2cc[nH]c12 [IC-3]: > 10000 nM
- COC(=O)c1ccccc1Oc1nc(Nc2ccc(N3CCC(N4CCN(C)CC4)CC3)cc2OC)nc2cc[nH]c12 [IV-2]: ~9140 nM
- COC(=O)c1cccc(Nc2nc(Nc3ccc(N4CCC(N5CCCC5)CC4)cc3OC)nc3cc[nH]c23)c1 [II-6]: 6720 nM
- COC(=O)c1ccccc1Sc1nc(Nc2ccc(N3CCC(N4CCCC4)CC3)cc2OC)nc2cc[nH]c12 [IU-5]: ~2850 nM

List IC50 for every entry below, keeping the order given.
1. CN1CCN(c2ccc(Nc3nc(NCc4ccccc4S(C)(=O)=O)c4[nH]ccc4n3)cc2)CC1 [IN-5]
2. COC(=O)c1ccccc1Nc1nc(Nc2ccc(N3CCC(O)CC3)nc2)nc2cc[nH]c12 [IG-18]
3. COC(=O)c1ccccc1Oc1nc(Nc2ccc(N3CCC(O)CC3)cc2)nc2cc[nH]c12 [IV-3]
4. CC(C)S(=O)(=O)c1ccccc1CNc1nc(Nc2ccc(N3CCC(O)CC3)cc2)nc2cc[nH]c12 [IO-3]

Reply text:
> 10000 nM
8760 nM
8150 nM
> 10000 nM

List IC50 for every entry below, keeping the order given.
1. CNc1nc(Nc2ccc(C(=O)N3CCOCC3)cc2OC)nc2cc[nH]c12 [IQ-5]
2. CCC(C)OC(=O)c1ccccc1Nc1nc(Nc2ccc(N3CCC(N4CCN(C)CC4)CC3)cc2OC)nc2cc[nH]c12 (centres unmarked) [IH-3]
3. CC(C)Sc1ccccc1CNc1nc(Nc2ccc(S(N)(=O)=O)cc2)nc2cc[nH]c12 [IM-3]

Reply text:
["> 10000 nM", "~859 nM", "> 10000 nM"]

These measurements were taken from patent US10508118B2.
